Tested on: HeLa
Measurement Notes: Cytotoxicity against human HeLa cells after 48 hrs by MTT assay
Assay type: functional, cell-based
Listing of recorded log10(IC50) by entry.
Quantity Measured: log10(IC50) (log10 of the value in µM)

{"Structure Smiles": "NCc1cc2c([nH]c3ccccc32)c(-c2ccc(F)cc2)n1", "Quantity Measured": "log10(IC50)", "Readout Number": 1.35}
{"Structure Smiles": "COc1cc(-c2nc(CN)cc3c2[nH]c2ccccc23)cc(OC)c1OC", "Quantity Measured": "log10(IC50)", "Readout Number": 1.34}
{"Structure Smiles": "COc1ccc(-c2nc(CNC(=S)SC)cc3c4ccccc4n(C)c23)cc1", "Quantity Measured": "log10(IC50)", "Readout Number": 0.41}
{"Structure Smiles": "COc1cccc2c1C(=O)c1c(O)c3c(c(O)c1C2=O)C[C@@](O)(C(=O)CO)C[C@@H]3O[C@H]1C[C@H](N)[C@H](O)[C@H](C)O1", "Quantity Measured": "log10(IC50)", "Readout Number": 0.42}
{"Structure Smiles": "Cn1c2ccccc2c2cc(CN)nc(-c3ccc(C(F)(F)F)cc3)c21", "Quantity Measured": "log10(IC50)", "Readout Number": 1.18}
{"Structure Smiles": "C=CCSC(=S)NCc1cc2c3ccccc3n(C)c2c(-c2ccc(C(F)(F)F)cc2)n1", "Quantity Measured": "log10(IC50)", "Readout Number": 0.67}
{"Structure Smiles": "CSC(=S)NCc1cc2c3ccccc3n(C)c2c(-c2ccc(C(F)(F)F)cc2)n1", "Quantity Measured": "log10(IC50)", "Readout Number": 0.17}
{"Structure Smiles": "C=CCSC(=S)NCc1cc2c([nH]c3ccccc32)c(-c2ccc(OC)cc2)n1", "Quantity Measured": "log10(IC50)", "Readout Number": 1.77}
{"Structure Smiles": "C=CCSC(=S)NCc1cc2c([nH]c3ccccc32)c(-c2ccc(F)cc2)n1", "Quantity Measured": "log10(IC50)", "Readout Number": 0.65}
{"Structure Smiles": "Cn1c2ccccc2c2cc(CN)nc(-c3ccc(F)cc3)c21", "Quantity Measured": "log10(IC50)", "Readout Number": 1.31}
{"Structure Smiles": "C=CCSC(=S)NCc1cc2c3ccccc3n(C)c2c(-c2cc(OC)c(OC)c(OC)c2)n1", "Quantity Measured": "log10(IC50)", "Readout Number": 1.30}
{"Structure Smiles": "C=CCSC(=S)NCc1cc2c([nH]c3ccccc32)c(-c2ccc(C(F)(F)F)cc2)n1", "Quantity Measured": "log10(IC50)", "Readout Number": 1.03}
{"Structure Smiles": "Cn1c2ccccc2c2cc(CNC(=S)SCc3ccccc3)nc(-c3ccc(C(F)(F)F)cc3)c21", "Quantity Measured": "log10(IC50)", "Readout Number": 0.68}
{"Structure Smiles": "COc1cc(-c2nc(CNC(=S)SC)cc3c2[nH]c2ccccc23)cc(OC)c1OC", "Quantity Measured": "log10(IC50)", "Readout Number": 1.05}
{"Structure Smiles": "COc1cc(-c2nc(CNC(=S)SCc3ccccc3)cc3c2[nH]c2ccccc23)cc(OC)c1OC", "Quantity Measured": "log10(IC50)", "Readout Number": 1.16}
{"Structure Smiles": "C=CCSC(=S)NCc1cc2c([nH]c3ccccc32)c(-c2cc(OC)c(OC)c(OC)c2)n1", "Quantity Measured": "log10(IC50)", "Readout Number": 1.37}
{"Structure Smiles": "C=CCSC(=S)NCc1cc2c3ccccc3n(C)c2c(-c2ccc(F)cc2)n1", "Quantity Measured": "log10(IC50)", "Readout Number": 0.41}
{"Structure Smiles": "Cn1c2ccccc2c2cc(CNC(=S)SCc3ccccc3)nc(-c3ccc(F)cc3)c21", "Quantity Measured": "log10(IC50)", "Readout Number": 0.50}

---

Tested on: HeLa
Measurement Notes: Cytotoxicity against human HeLa cells after 48 hrs by MTT assay
Format: functional, cell-based
pIC50: −log10 of the molar value.
pIC50 of 5 or higher: MET. Under 5: NOT MET.

{"Structure Smiles": "COc1cc(-c2nc(CN)cc3c4ccccc4n(C)c23)cc(OC)c1OC", "Category": "NOT MET"}
{"Structure Smiles": "CSC(=S)NCc1cc2c([nH]c3ccccc32)c(-c2ccc(F)cc2)n1", "Category": "MET"}

---

Listing of recorded IC50 by entry.
System: HeLa
Measurement Notes: Cytotoxicity against human HeLa cells after 48 hrs by MTT assay
Type: functional, cell-based

{"Structure Smiles": "FC(F)(F)c1ccc(-c2nc(CNC(=S)SCc3ccccc3)cc3c2[nH]c2ccccc23)cc1", "IC50 [µM]": 3.98}
{"Structure Smiles": "Fc1ccc(-c2nc(CNC(=S)SCc3ccccc3)cc3c2[nH]c2ccccc23)cc1", "IC50 [µM]": 3.81}
{"Structure Smiles": "COc1ccc(-c2nc(CNC(=S)SCc3ccccc3)cc3c4ccccc4n(C)c23)cc1", "IC50 [µM]": 13.8}
{"Structure Smiles": "COc1ccc(-c2nc(CN)cc3c4ccccc4n(C)c23)cc1", "IC50 [µM]": 14.8}
{"Structure Smiles": "COc1cc(-c2nc(CNC(=S)SC)cc3c4ccccc4n(C)c23)cc(OC)c1OC", "IC50 [µM]": 16.9}
{"Structure Smiles": "CSC(=S)NCc1cc2c3ccccc3n(C)c2c(-c2ccc(F)cc2)n1", "IC50 [µM]": 2.39}
{"Structure Smiles": "COc1ccc(-c2nc(CN)cc3c2[nH]c2ccccc23)cc1", "IC50 [µM]": 18.6}
{"Structure Smiles": "COc1cc(-c2nc(CNC(=S)SCc3ccccc3)cc3c4ccccc4n(C)c23)cc(OC)c1OC", "IC50 [µM]": 12.3}
{"Structure Smiles": "NCc1cc2c([nH]c3ccccc32)c(-c2ccc(C(F)(F)F)cc2)n1", "IC50 [µM]": 15.8}
{"Structure Smiles": "COc1ccc(-c2nc(CNC(=S)SCc3ccccc3)cc3c2[nH]c2ccccc23)cc1", "IC50 [µM]": 24.1}

---

Listing of recorded IC50 by entry.
Tested on: HeLa
Measurement Notes: Cytotoxicity against human HeLa cells after 48 hrs by MTT assay
Format: functional, cell-based

{"Structure Smiles": "C=CCSC(=S)NCc1cc2c3ccccc3n(C)c2c(-c2ccc(OC)cc2)n1", "IC50 / µM": 8.3}
{"Structure Smiles": "COc1ccc(-c2nc(CNC(=S)SC)cc3c2[nH]c2ccccc23)cc1", "IC50 / µM": 7.78}
{"Structure Smiles": "CSC(=S)NCc1cc2c([nH]c3ccccc32)c(-c2ccc(C(F)(F)F)cc2)n1", "IC50 / µM": 12.6}
